Reference for the values: patent US20080058636A1

Target: human collagen type I (acid soluble, extracted from placenta, Sigma C7774) (human) (UniProt P02452)
Sequence (P02452 162-1218 limits assumed, chain 1 of 2): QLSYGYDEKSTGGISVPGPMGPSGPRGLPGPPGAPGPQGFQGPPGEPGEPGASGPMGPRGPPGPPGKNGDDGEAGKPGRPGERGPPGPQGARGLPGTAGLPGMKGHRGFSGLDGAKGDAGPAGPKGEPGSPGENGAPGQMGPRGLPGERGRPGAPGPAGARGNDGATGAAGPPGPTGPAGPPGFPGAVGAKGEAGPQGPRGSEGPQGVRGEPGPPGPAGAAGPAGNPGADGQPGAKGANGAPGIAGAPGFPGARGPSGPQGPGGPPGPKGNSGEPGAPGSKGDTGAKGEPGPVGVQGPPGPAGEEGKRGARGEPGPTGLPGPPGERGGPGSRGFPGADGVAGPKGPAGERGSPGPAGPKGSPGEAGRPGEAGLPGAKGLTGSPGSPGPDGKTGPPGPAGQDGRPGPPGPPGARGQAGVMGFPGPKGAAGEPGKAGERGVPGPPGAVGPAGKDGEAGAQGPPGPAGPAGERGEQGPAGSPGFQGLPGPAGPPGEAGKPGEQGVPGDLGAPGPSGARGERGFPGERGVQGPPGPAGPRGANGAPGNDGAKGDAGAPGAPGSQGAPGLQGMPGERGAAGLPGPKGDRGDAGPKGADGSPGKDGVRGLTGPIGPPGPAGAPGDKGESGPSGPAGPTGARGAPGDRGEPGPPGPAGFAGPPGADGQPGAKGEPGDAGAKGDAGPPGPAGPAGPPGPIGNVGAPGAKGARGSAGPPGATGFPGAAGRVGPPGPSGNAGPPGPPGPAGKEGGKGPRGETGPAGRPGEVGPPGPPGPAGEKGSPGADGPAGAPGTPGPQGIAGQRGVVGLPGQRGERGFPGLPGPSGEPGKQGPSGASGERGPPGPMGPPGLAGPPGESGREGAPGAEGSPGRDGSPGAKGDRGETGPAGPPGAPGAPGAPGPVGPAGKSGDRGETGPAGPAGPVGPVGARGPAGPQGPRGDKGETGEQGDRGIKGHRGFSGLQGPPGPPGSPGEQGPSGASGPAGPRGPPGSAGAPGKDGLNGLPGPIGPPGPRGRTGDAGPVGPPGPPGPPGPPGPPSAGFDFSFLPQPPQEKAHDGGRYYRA
Sequence (P08123 80-1119 limits assumed, chain 2 of 2, further chain): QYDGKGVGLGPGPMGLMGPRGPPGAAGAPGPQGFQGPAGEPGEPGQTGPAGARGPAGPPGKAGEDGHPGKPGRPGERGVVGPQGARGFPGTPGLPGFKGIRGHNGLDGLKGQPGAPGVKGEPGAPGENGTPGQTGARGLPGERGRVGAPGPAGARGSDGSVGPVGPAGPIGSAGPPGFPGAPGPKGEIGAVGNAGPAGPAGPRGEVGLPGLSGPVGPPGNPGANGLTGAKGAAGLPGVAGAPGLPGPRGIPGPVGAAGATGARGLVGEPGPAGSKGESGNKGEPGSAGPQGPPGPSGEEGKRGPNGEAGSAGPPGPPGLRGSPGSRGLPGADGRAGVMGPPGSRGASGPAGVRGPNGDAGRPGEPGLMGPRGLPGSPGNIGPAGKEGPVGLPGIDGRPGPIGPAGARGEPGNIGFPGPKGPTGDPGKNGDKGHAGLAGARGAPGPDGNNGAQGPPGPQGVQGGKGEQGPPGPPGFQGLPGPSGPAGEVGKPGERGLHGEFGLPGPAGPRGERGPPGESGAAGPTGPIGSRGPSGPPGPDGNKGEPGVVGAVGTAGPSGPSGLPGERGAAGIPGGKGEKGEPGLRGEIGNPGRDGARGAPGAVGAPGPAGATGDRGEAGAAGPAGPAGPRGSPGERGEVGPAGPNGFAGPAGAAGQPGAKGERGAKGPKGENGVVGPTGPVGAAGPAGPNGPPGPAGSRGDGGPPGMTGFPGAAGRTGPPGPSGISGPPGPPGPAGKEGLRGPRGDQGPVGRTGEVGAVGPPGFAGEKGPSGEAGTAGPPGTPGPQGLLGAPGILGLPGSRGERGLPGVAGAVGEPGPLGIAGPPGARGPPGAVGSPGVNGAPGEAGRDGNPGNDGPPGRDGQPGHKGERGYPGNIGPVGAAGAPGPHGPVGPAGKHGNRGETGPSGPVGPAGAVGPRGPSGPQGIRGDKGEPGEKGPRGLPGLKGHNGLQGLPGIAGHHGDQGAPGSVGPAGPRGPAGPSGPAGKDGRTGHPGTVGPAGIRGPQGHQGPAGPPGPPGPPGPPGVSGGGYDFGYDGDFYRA
Assay: dried collagen assay
Bridge positions count the residues as written; N and C are the ends. Ends that are not written are not given here.
parameter: Dried Human Collagen Binding (%)
Give bare numbers, in %.

{"binder": "GWSCHGDAADWPCQWS (disulfide 4-13; also: C-terminus probably amidated (Rink amide resin)) [SEQ ID NO: 38]", "Dried Human Collagen Binding, %": 6}
{"binder": "RWSCVLDADGWVCSDN (disulfide 4-13 (inferred); also: C-terminus likely amidated (Rink amide resin)) [SEQ ID NO: 66]", "Dried Human Collagen Binding, %": 6}

With those in mind, consider the next binder.
# Dried Human Collagen Binding (binder: GWQCSGDASVWNCDWI (disulfide 4-13; also: C-terminus probably amidated (Rink amide resin)) [SEQ ID NO: 39] ) is 6
